Ref: ChEMBL document CHEMBL1122158

- System: M2R
- experiment_summary: In vitro effective dose that causes 50% inhibition of growth of M2R cell line - amelanotic melanoma
- Type: functional
- applied_conditions: Mus musculus, in the assay text read “melanotic melanoma” for “amelanotic melanoma”, read-out: ED50 (the source's name)
// reported pEC50 for each item listed
// pEC50: -log10(molar conc.)

{"molecule": "NC(CNc1ccc(O)cc1)C(=O)O (stereo not drawn)", "pEC50": 4.62}

molecule NC(CCCNc1ccc(O)cc1)C(=O)O (stereo not drawn) , pEC50 observed: 4.89
